# Tested on: Rattus norvegicus
# ASSAY_PROTOCOL: Biodistribution in spleen of immature female rat after 1 hr administration of 3 micro Ci (111 kBq) in the absence of 60 microg estradiol
# Assay type: ADME, organism-based
# MEASUREMENT_CONTEXT: in vivo
QUANTITY_MEASURED: ID/g (%)
API: value field is a number in %; no unit string.

# count of solved cases: 5
C[C@@H]1Cc2c(ccc(O)c2F)[C@H]2CC[C@@]3(C)[C@@H](CC[C@@]3(O)/C=C\I)[C@H]12 | 1.16
CO[C@H]1C[C@@]2(C)[C@@H](CC[C@@]2(O)/C=C\I)[C@@H]2CCc3c(ccc(O)c3F)[C@H]21 | 2.04
CO[C@H]1C[C@@]2(C)[C@@H](CC[C@@]2(O)/C=C/I)[C@@H]2CCc3cc(O)c(F)cc3[C@H]21 | 0.83
C[C@@H]1Cc2c(ccc(O)c2F)[C@H]2CC[C@@]3(C)[C@@H](CC[C@@]3(O)/C=C/I)[C@H]12 | 0.68
C[C@]12CC[C@@H]3c4cc(F)c(O)cc4CC[C@H]3[C@@H]1CC[C@@]2(O)/C=C\I | 0.55

Proceed to the following item.
stdin: Any idea what its ID/g is? The compound is C[C@]12CC[C@@H]3c4ccc(O)c(F)c4CC[C@H]3[C@@H]1CC[C@@]2(O)/C=C/I
stdout: 0.59

---

Recorded measurements of ID/g, one per entry
# Test system: Rattus norvegicus
# ASSAY_PROTOCOL: Biodistribution in kidney of immature female rat after 5 hour administration of 3 micro Ci (111 kBq) in the absence of 60 microg estradiol
# Type: ADME, organism-based
# MEASUREMENT_CONTEXT: in vivo
API: value field is a number in %; no unit string.

CO[C@H]1C[C@@]2(C)[C@@H](CC[C@@]2(O)/C=C/I)[C@@H]2CCc3cc(O)c(F)cc3[C@H]21 | 1.52
C[C@]12CC[C@@H]3c4ccc(O)c(F)c4CC[C@H]3[C@@H]1CC[C@@]2(O)/C=C/I | 0.26
C[C@@H]1Cc2cc(O)c(F)cc2[C@H]2CC[C@@]3(C)[C@@H](CC[C@@]3(O)/C=C\I)[C@H]12 | 0.54
C[C@@H]1Cc2cc(O)c(F)cc2[C@H]2CC[C@@]3(C)[C@@H](CC[C@@]3(O)/C=C/I)[C@H]12 | 0.26
C[C@@H]1Cc2c(ccc(O)c2F)[C@H]2CC[C@@]3(C)[C@@H](CC[C@@]3(O)/C=C/I)[C@H]12 | 0.89

stdin: What ID/g appears in the records for this compound with Rattus norvegicus? CO[C@H]1C[C@@]2(C)[C@@H](CC[C@@]2(O)/C=C\I)[C@@H]2CCc3c(ccc(O)c3F)[C@H]21
stdout: 1.08

---

# Test system: Rattus norvegicus
# ASSAY_PROTOCOL: Biodistribution in blood of immature female rat after 1 hr administration of 3 micro Ci (111 kBq) in the absence of 60 microg estradiol
# Assay type: ADME, organism-based
# MEASUREMENT_CONTEXT: in vivo
Mark false (0) for ID/g values under 0.5%, and true (1) for everything at or above.

CO[C@H]1C[C@@]2(C)[C@@H](CC[C@@]2(O)/C=C\I)[C@@H]2CCc3c(ccc(O)c3F)[C@H]21 | true (1)
C[C@]12CC[C@@H]3c4ccc(O)c(F)c4CC[C@H]3[C@@H]1CC[C@@]2(O)/C=C\I | true (1)
C[C@@H]1Cc2c(ccc(O)c2F)[C@H]2CC[C@@]3(C)[C@@H](CC[C@@]3(O)/C=C\I)[C@H]12 | false (0)
C[C@]12CC[C@@H]3c4cc(F)c(O)cc4CC[C@H]3[C@@H]1CC[C@@]2(O)/C=C/I | true (1)
C[C@]12CC[C@@H]3c4cc(F)c(O)cc4CC[C@H]3[C@@H]1CC[C@@]2(O)/C=C\I | true (1)

stdin: Please indicate if the recorded ID/g for CO[C@H]1C[C@@]2(C)[C@@H](CC[C@@]2(O)/C=C/I)[C@@H]2CCc3cc(O)c(F)cc3[C@H]21 meets or exceeds 0.5%.
stdout: false (0)

stdin: # repeat for C[C@@H]1Cc2cc(O)c(F)cc2[C@H]2CC[C@@]3(C)[C@@H](CC[C@@]3(O)/C=C/I)[C@H]12
stdout: false (0)

stdin: # repeat for C[C@]12CC[C@@H]3c4ccc(O)c(F)c4CC[C@H]3[C@@H]1CC[C@@]2(O)/C=C/I
stdout: true (1)

stdin: # repeat for C[C@@H]1Cc2cc(O)c(F)cc2[C@H]2CC[C@@]3(C)[C@@H](CC[C@@]3(O)/C=C\I)[C@H]12
stdout: false (0)

stdin: # repeat for C[C@@H]1Cc2c(ccc(O)c2F)[C@H]2CC[C@@]3(C)[C@@H](CC[C@@]3(O)/C=C/I)[C@H]12
stdout: false (0)
